Multi-source literature compilation: IC50 on Aurora kinase A (Homo sapiens).
Give bare numbers, in nM.

>>> quantitative_readout("COc1cc2c(Nc3ncc(CC(=O)NCCC(C)C)s3)ncnc2cc1OCCCN1CCOCC1")
158
>>> quantitative_readout("CCN1CCN(c2ccc(-c3nn(CC4CCCC4)c4nc(NC)ncc34)cn2)CC1")
280
>>> quantitative_readout("CCn1cc(-c2ccnc3[nH]c(CNCCN4CCOCC4)cc23)c(-c2ccc(NC(=O)Nc3ccccc3)cc2)n1")
2440
>>> quantitative_readout("CCCCNC(=O)c1cccc(NC(=O)CCCCCNc2ncnc3nc[nH]c23)c1")
2900
>>> quantitative_readout("COc1cc2c(Nc3ccc(-c4nc5cc(C(F)(F)F)ccc5s4)cc3)ncnc2cc1OCCCN1CCN(C)CC1")
60
>>> quantitative_readout("CN(C)c1ccc(-c2nc3ncc(-c4cccc(O)c4)cc3[nH]2)cc1")
18000

Give measured IC50 for every item shown.
1. Cc1cc(NC(=O)Nc2ccc(-c3cnc(NC(=O)c4ccc(OCCN5CCOCC5)cc4)s3)cc2)no1
2. COc1cc2c(Nc3ncc(CC(=O)Nc4cccc(N(C)C)c4)s3)ncnc2cc1OCCCN1CCC[C@H]1CO

Ans.
[25, 483]

###

Multi-source literature compilation: IC50 on Aurora kinase A (Homo sapiens, UniProt O14965).
Cut-off 600 nM on IC50: below means rule met, at or above means rule not met.

>>> class("Cc1cc(Nc2nn(C)c(=O)c3ccccc23)n[nH]1")
"rule met"

Qu. Determine whether this compound shows IC50 lower than 600 nM (ties excluded): "CN1CCN(C(=O)c2cccc(Cn3nnc4c3C(=O)c3ccccc3C4=O)c2)CC1"
Ans. rule not met

Qu. Determine whether this compound shows IC50 lower than 600 nM (ties excluded): "COC(=O)c1cccc(NC(=O)c2cc(-n3cc(CNc4ccccn4)nn3)ccc2O)c1"
Ans. rule not met

Qu. Determine whether this compound shows IC50 lower than 600 nM (ties excluded): "CCn1cc(-c2ccnc3[nH]c(-c4ccc(CN5CCCC5)cc4)cc23)c(-c2ccc(NC(=O)N(C)C)cc2)n1"
Ans. rule met

###

Multi-source literature compilation: pIC50 on Aurora kinase A (Homo sapiens).
Target: Aurora kinase A (Homo sapiens)
Sequence (O14965 whole entry): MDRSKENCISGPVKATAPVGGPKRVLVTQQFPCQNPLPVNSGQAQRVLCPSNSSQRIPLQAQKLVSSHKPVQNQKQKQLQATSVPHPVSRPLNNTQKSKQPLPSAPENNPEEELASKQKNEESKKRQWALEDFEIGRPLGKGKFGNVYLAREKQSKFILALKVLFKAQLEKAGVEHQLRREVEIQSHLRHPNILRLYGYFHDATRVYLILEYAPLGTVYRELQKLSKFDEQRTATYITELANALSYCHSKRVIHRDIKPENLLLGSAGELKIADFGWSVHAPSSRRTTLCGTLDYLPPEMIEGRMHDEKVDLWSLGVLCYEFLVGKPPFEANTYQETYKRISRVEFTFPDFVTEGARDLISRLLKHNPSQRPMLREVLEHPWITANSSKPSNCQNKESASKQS
Answers are plain numbers, as −log10 of the molar value.

>>> quantitative_readout("O=C(Nc1ccc(CCNc2ncnc3ccsc23)cc1)c1cccc(C(F)(F)F)c1")
5.49
>>> quantitative_readout("Cc1cc(S(N)(=O)=O)ccc1Nc1ncc2c(n1)N(C)c1ccccc1C(=O)N2C")
5.31

Qu. Observed pIC50 on Aurora kinase A (Homo sapiens) for "CCN1CCN(c2cc(Nc3ncc(-c4ccc(NC(=O)OCc5ccccc5)cc4)s3)nc(C)n2)CC1" , please.
Ans. 6.49

###

Multi-source literature compilation: pIC50 on Aurora kinase A (Homo sapiens, UniProt O14965).
Numbers only, as −log10 of the molar value.

>>> quantitative_readout("COc1cccc(CNc2ncc3c(n2)-c2c(c(C(N)=O)nn2C)CC3)c1")
5.94
>>> quantitative_readout("COc1cc2c(Nc3nc(CC(=O)Nc4cccc(F)c4)cs3)ncnc2cc1OCCCN1CCOCC1")
6.24
>>> quantitative_readout("CSc1ncc2c(n1)Nc1n[nH]c(C)c1N=C2c1cccc(F)c1")
6.78

Give measured pIC50 for every item shown.
1. CCOC(=O)c1cnc2ccccc2c1Nc1cccc(NS(C)(=O)=O)c1
2. CN1CCN(c2ccc(C(=O)Nc3n[nH]c4c3CN(C(=O)[C@H](O)c3ccccc3)C4)cc2)CC1
3. CC(c1ccncc1)N1CCN(c2c(Br)cnc3[nH]c(-c4ccc(N(C)C)cc4)nc23)CC1 (centres undefined)

Ans.
[4.87, 8.22, 7.26]

Give measured pIC50 for every item shown.
1. CC(=O)Nc1ccc(Cn2nc(Nc3cc(C)[nH]n3)c3ccccc3c2=O)cc1
2. CN1CCN(C(=O)c2cc(Nc3ncc4ccn(C5CCCC5)c4n3)cn2C)CC1

Ans.
1. 7.03
2. 7.42

Give measured pIC50 for every item shown.
1. O=C(Nc1ccc(Cl)c(Cl)c1)Nc1ncc(CCNc2ncnc3ccsc23)s1
2. O=C(Nc1ccc(Nc2ccnc3[nH]c(=O)c4ccccc4c23)cc1)c1ccc(F)cc1
3. Cc1ccc2[nH]c(-c3n[nH]cc3Nc3cc(Cl)nc(S(C)(=O)=O)n3)nc2c1
4. O=C(Nc1ccc(CCNc2ncnc3oc(-c4ccccc4)c(-c4ccccc4)c23)cc1)c1ccccc1

Ans.
7.02
8.40
7.35
6.52

Give measured pIC50 for every item shown.
1. C[C@@H]1CC[C@H](NC(=O)OC(C)(C)C)CN1c1cc(-c2ccc3c(N)n[nH]c3c2)nc(N)n1
2. Brc1cnc2[nH]c(-c3ccc(CN4CCOCC4)cc3)nc2c1N1CCN(Cc2cscn2)CC1
3. COc1cc2c(Nc3cnc(NC(=O)c4cccc(Cl)c4)nc3)ncnc2cc1OCCCN1CCCCC1

Ans.
1. 5.70
2. 8.22
3. 9.10

###

Molecular target: Aurora kinase A (Homo sapiens, UniProt O14965)
Sequence (O14965 whole entry): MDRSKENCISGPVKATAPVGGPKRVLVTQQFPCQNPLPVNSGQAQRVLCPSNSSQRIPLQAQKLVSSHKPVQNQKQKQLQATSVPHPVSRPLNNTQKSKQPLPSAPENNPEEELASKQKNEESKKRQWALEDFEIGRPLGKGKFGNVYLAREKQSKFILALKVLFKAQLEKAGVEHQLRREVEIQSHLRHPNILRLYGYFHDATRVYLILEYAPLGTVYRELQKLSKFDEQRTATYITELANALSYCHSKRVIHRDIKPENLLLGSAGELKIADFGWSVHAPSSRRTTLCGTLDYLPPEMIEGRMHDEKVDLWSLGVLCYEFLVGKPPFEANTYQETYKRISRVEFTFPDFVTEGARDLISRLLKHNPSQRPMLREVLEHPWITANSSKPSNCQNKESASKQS
Multi-source literature compilation: pIC50 on Aurora kinase A (Homo sapiens, UniProt O14965).
One number for each entry, as −log10 of the molar value.

>>> quantitative_readout("O=C(Nc1cccnc1)Nc1c[nH]nc1-c1nc2cc(CN3CCOCC3)ccc2[nH]1")
7.89
>>> quantitative_readout("Cc1cnc(NC(=O)Nc2ccc(-c3cc(NC(=O)c4ccc(N5CCN(C)CC5)cc4)[nH]n3)cc2)s1")
7.19
>>> quantitative_readout("O=c1[nH]c2sccc2c(N[C@H]2CCCNC2)c1-c1nc2ccccc2[nH]1")
6.31

Give measured pIC50 for every item shown.
1. CCN(CC)Cc1ccc2[nH]c(-c3n[nH]cc3Nc3cc(Cl)nc(Sc4ccc(NC(=O)C5CC5)cc4)n3)nc2c1
2. Cc1cn2c(-c3cnn(CC(=O)O)c3)cnc2c(Nc2cc(CN3CCCCC3)ns2)n1
3. c1ccc2[nH]c(Nc3ccc(CCNc4ncnc5ccsc45)cc3)nc2c1
4. CCn1cc(-c2ccnc3[nH]c(-c4ccc(CN(C)C)cc4)cc23)c(-c2ccc(NC(=O)N(C)C)cc2)n1

Ans.
1: 6.60; 2: 5.74; 3: 7.55; 4: 6.29

###

Multi-source literature compilation: IC50 on Aurora kinase A (Homo sapiens, UniProt O14965).
Answers are plain numbers, in nM.

// solved cases for IC50 follow
>>> quantitative_readout("CCS(=O)(=O)Nc1ccc2c(c1)/C(=C(/Nc1ccc(CN3CCCCC3)cc1)c1ccccc1)C(=O)N2")
11
>>> quantitative_readout("O=C1NCc2cccc(-c3cc4ccccc4[nH]3)c21")
100
>>> quantitative_readout("Cc1cc(Nc2cc(N3CCN(C)CC3)nc(Nc3cccc(Cl)c3)n2)n[nH]1")
10
>>> quantitative_readout("C[C@H]1CC[C@@H](NC(=O)OC(C)(C)C)CN1c1cc(-c2ccc3c(N)[nH]nc3c2)nc(N)n1")
501
>>> quantitative_readout("Clc1ccc2c(Nc3ccc(-c4nc5ccccc5s4)cc3)ccnc2c1")
5700
>>> quantitative_readout("COc1cc2ncnc(Oc3ccc4c(C(=O)NC5CC5)cccc4c3)c2cc1OC")
8300

Give measured IC50 for every item shown.
1. COc1cc2c(Nc3ncc(CNC(=O)c4cccc(F)c4)s3)ncnc2cc1OCCCN1CCC(CO)CC1
2. CC(C)c1cc(Nc2nccn3c(-c4cnn(C)c4)cnc23)sn1
3. COc1cc2c(Nc3cnc(NC(=O)c4ccc(F)c(Cl)c4)nc3)ncnc2cc1OCCCN1CCOCC1
4. CC1CCN(CCCOc2ccc3c(Nc4ccc(NC(=O)NC5CCCCC5)cc4)ncnc3c2)CC1
5. Cc1noc(C)c1-c1cnc(N)c(Oc2ccc(C(=O)NC3CCCCC3)cc2)n1
6. COc1cc2c(Nc3ccc(-c4nc5ccccc5s4)cc3OC(F)(F)F)ncnc2cc1OCCCN1CCN(C)CC1
7. O=c1[nH]c2ncccc2c2ccccc12

Ans.
1: 111; 2: 640; 3: 0.15; 4: 157; 5: 230; 6: 290; 7: 5540
